assay: Dog PK study #4 (Compound A PO daily 14 days, 1/3/10 mg/kg; toxicokinetics, platelet counts); assay type: in vivo, beagle dogs; conditions: beagle, dog, plasma, oral; after daily administration for 14 days, 1 mg/kg, Female, 24 h
MEASURED_PARAMETER: concentration at 24 h (ng/mL)
Answers are plain numbers, in ng/mL.

Q: Give recorded concentration at 24 h. "Cn1cc(-c2ccccc2)c(-c2cn(C)c(=O)c3[nH]c(-c4cnn(C(F)(F)F)c4)cc23)cc1=O"
A: 10.3

---

assay: Rat PK study #1 (Compound A PO, methylcellulose vs propylene glycol formulation); type: in vivo, Lewis rats; details: male, Lewis, rat, plasma, po, 10 mg/kg, Lewis rats, PO 10 mg/kg, propylene glycol/Vitamin E TPGS/water formulation, 4 h, mean of 3 animals
MEASURED_PARAMETER: concentration at 4 h
Lab note: write values as number then unit, every time.

Q: Give recorded concentration at 4 h. Cn1cc(-c2ccccc2)c(-c2cn(C)c(=O)c3[nH]c(-c4cnn(C(F)(F)F)c4)cc23)cc1=O [Compound A]
A: 399 ng/mL
